# Tested on: PCSK9 mRNA
# Experiment Description: PCSK9 silencing in primary cynomolgus monkey hepatocytes (dilution series from 30 nM, PCSK9/GAPDH mRNA)
# Format: cell-based
# Condition Set: primary cynomolgus monkey hepatocytes; read-out: IC50 in Cynomolgous monkey Hepatocyte [nM]s
In the oligonucleotide strings, read from the 5' end, every base follows the letter of its sugar. An asterisk marks phosphorothioate; unmarked linkages are phosphodiester. Other units and linkages are bracketed, terminal groups are in braces. A string of capitals states the bases alone. d = 2'-deoxy (DNA); m = 2'-O-methyl; r = 2'-OH (RNA); {P} = phosphate; f = 2'-fluoro
Some substances, each annotated with its measured IC50.
Readout Kind: IC50 (nM)

>>> numeric_readout("AD-10792: 2′OMe modified dsRNA targeting PCSK9 at 1091-1109, SEQ ID NO:1305/1306 (chain 1 rGmCmCmUrGrGrArGmUmUmUrAmUmUmCrGrGrArAdT*dT; chain 2 rUrUrCrCrGrArAmUrArArArCrUrCmCrArGrGrCdT*dT)")
0.1
>>> numeric_readout("AD-9703: PCSK9 siRNA (sense mCrAmCmCrArArGrGrArGrGmCrArGrGrAmUmUmCdT*dT; antisense rGrArArUrCrCrUrGrCrCrUrCrCrUrUrGrGrUrGdT*dT)")
1
>>> numeric_readout("AD-14716: PCSK9 siRNA (sense UfuCfuAfgAfcCfuGfuUfuUffCfuUfTsT; antisense AAGcAaaACagGUCUAgaaTsT; as printed in the source, key not given here)")
0.1
>>> numeric_readout("AD-14706: PCSK9 siRNA (sense UuCuAgAcCuGuUuUgCuUTsT; antisense AAGCfAAAACfAGGUfCfUfAGAATsT; as printed in the source, key not given here)")
0.1
>>> numeric_readout("AD-10796: modified dsRNA, SEQ ID NO:1309/1310 (chain 1 rGmCmCmUrGrGrArGmUmUmUrAmUmUmCrGrGrArAdT*dT; chain 2 rUrUrCrCrGrArArUrArArArCrUrCrCrArGrGrCdT*dT)")
0.1
>>> numeric_readout("AD-9761: PCSK9 siRNA (sense rGmUmCmUrGmCmCrGrArGmCmCrGrGrArGmCmUmCdT*dT; antisense rGrArGrCrUrCrCrGrGrCrUrCrGrGmCrArGrArCdT*dT)")
0.5
>>> numeric_readout("AD-9723: PCSK9 siRNA (sense rArGmCmCrArArGmCmCmUmCmUmUmCmUmUrAmCmUdT*dT; antisense rArGmUrArArGrArArGrArGrGrCrUrUrGrGrCrUdT*dT)")
0.5
>>> numeric_readout("AD-14726: PCSK9 siRNA (sense fUfUfCfUrArGrAfCfCfUrGfUfUfUfUrGfCfUfUdT*dT; antisense rArArGmCrAmAmArArCmAmGrGrUrCrUrAmGmAmAdT*dT)")
0.1
>>> numeric_readout("AD-9679: PCSK9 siRNA (sense mUmCmUrArGrAmCmCmUrGmUmUmUmUrGmCmUmUmUdT*dT; antisense rArArArGmCrArArArAmCrArGrGrUrCmUrArGrAdT*dT)")
0.1
>>> numeric_readout("AD-9713: PCSK9 siRNA (sense rAmCrAmUmUmUrAmUmCmUmUmUmUrGrGrGmUmCmUdT*dT; antisense rArGrArCrCmCrArArArArGrAmUrArArArUrGrUdT*dT)")
0.5
>>> numeric_readout("AD-9657: PCSK9 siRNA (sense rArArAmUmCrGrArGrGrGmCrArGrGrGmUmCrAmUdT*dT; antisense rArUrGrArCrCrCrUrGrCrCrCrUrCrGrArUrUrUdT*dT)")
0.5
>>> numeric_readout("AD-9644: PCSK9 siRNA (sense mUrGmCmUrGrArGrGmCmCrAmCrGrArGrGmUmCrAdT*dT; antisense rUrGrArCrCrUrCrGrUrGrGrCrCrUmCrArGmCrAdT*dT)")
0.5
>>> numeric_readout("AD-9755: PCSK9 siRNA (sense mUmCmUrGrGrGmUmUmUmUrGmUrArGmCrAmUmUmUdT*dT; antisense rArArArUrGrCmUrAmCrArArArArCrCmCrArGrAdT*dT)")
0.5
>>> numeric_readout("AD-14736: PCSK9 siRNA (sense rUmUrCmUrAmGrAmCrCmUrGmUrUmUrUmGrCmUrUdT*dT; antisense rArArGmCrAmAmArArCmAmGrGrUrCrUrAmGmAmAdT*dT)")
0.1
>>> numeric_readout("AD-14696: PCSK9 siRNA (sense rUmUrCmUrAmGrAmCrCmUrGmUrUmUrUmGrCmUrUdT*dT; antisense {P}-mAfAmGfCmAfAmAfAmCfAmGfGmUfCmUfAmGfAmAdT*dT)")
0.1
>>> numeric_readout("AD-9736: PCSK9 siRNA which targets only human and monkey PCSK9 message; SEQ ID NO:1517/1518 (chain 1 AGGuGuAucuccuAGAcAcTsT; chain 2 GUGUCuAGGAGAuAcACCUTsT; as printed in the source, key not given here)")
0.5
>>> numeric_readout("AD-9680: dsRNA targeting the PCSK9 gene at 3530-3548; sense SEQ ID NO:1227, antisense SEQ ID NO:1228 (sense mUmUmCmUrArGrAmCmCmUrGmUmUmUmUrGmCmUmUdT*dT; antisense rArArGmCrArArArAmCrArGrGrUrCmUrArGrArAdT*dT)")
0.1
>>> numeric_readout("AD-9762: PCSK9 siRNA (sense mCrAmUrAmCrArGrArGmUrGrAmCmCrAmCmCrGrGdT*dT; antisense rCrCrGrGrUrGrGrUmCrArCrUrCrUrGmUrArUrGdT*dT)")
0.5
